Hey, just so you know, these numbers are from paper PMC4437028.

Catalogue of variants with associated response
B1: mouse PTPδ Ig1-Fn1 (residues 28-418), splice variant meA9B+ [modified: N-linked glycans] [mouse] / mouse Slitrk2 LRR1 (first leucine-rich repeat of Slit and Trk-like family member 2), wild type [modified: N-linked glycans; N-linked … (parent complex)
chain 1: ETPPRFTRTPVDQTGVSGGVASFICQATGDPRPKIVWNKKGKKVSNQRFEVIEFDDGSGSVLRIQPLRTPRDEAIYECVASNNVGEISVSTRLTVLREDQIPRGFPTIDMGPQLKVVERTRTATMLCAASGNPDPEITWFKDFLPVDTSNNNGRIKQLRSESIGGTPIRGALQIEQSEESDQGKYECVATNSAGTRYSAPANLYVRELREVRRVPPRFSIPPTNHEIMPGGSVNITCVAVGSPMPYVKWMLGAEDLTPEDDMPIGRNVLELNDVRQSANYTCVAMSTLGVIEAIAQITVKALPKPPGTPVVTESTATSITLTWDSGNPEPVSYYIIQHKPKNSEEPYKEIDGIATTRYSVAGLSPYSDYEFRVVAVNNIGRGPASEPVLTQK
chain 2: MLSGVWFLSVLTVAGILQTESRKTAKDICKIRCLCEEKENVLNINCENKGFTTVSLLQPPQYRIYQLFLNGNLLTRLYPNEFVNYSNAVTLHLGNNGLQEIRPGAFSGLKTLKRLHLNNNKLEVLREDTFLGLESLEYLQADYNYISTIEAGAFSKLNKLKVLILNDNLLLSLPSNVFRFVLLTHLDLRGNRLKVMPFAGVLEHIGGIMEIQLEENPWNCTCDLLPLKAWLDTITVFVGEIVCETPFRLHGKDVTQLTRQDLCPRK

variants of: B1; experiment: SPR equilibrium analysis; point at 4 µM PTPδ Ig1-Fn1 (highest concentration); parent: 600; read off a plot

// query Identify the reported response for the following entry. chain 2 D167A
// result ~100 Response unit

// query Identify the reported response for the following entry. chain 2 F247A, chain 2 H250A
// result ~460 Response unit

// query Identify the reported response for the following entry. chain 2 R114A
// result ~490 Response unit

// query Identify the reported response for the following entry. chain 2 E215A
// result ~210 Response unit

---
// query Identify the reported response for the following entry. chain 2 D187A
// result ~120 Response unit
